# Test details: Volume of distribution at steady state in BALB/c mouse at 0.2 mg/kg, iv and 1 mg/kg, po by LC/MS/MS analysis
# Experimental context: in vivo, read-out: Vdss
Endpoint name: Vd (L/kg)
# number only, unit L/kg dropped from output

// sample O=C(O)COc1ccc(Cl)cc1C#Cc1cccc(Cl)c1 , its Vd was 0.3

====

# Test details: Thermodynamic solubility of the compound in 50 mM phosphate buffered saline at pH 7.4
# Format: physicochemical
# Experimental context: read-out: Therm_solubility
Endpoint name: solubility thermodynamic (µg/mL)
# number only, unit µg/mL dropped from output

// sample CCCS(=O)(=O)c1cccc(C#Cc2cc(Cl)ccc2OCC(=O)O)c1 , its solubility thermodynamic was 760
